assay: budding yeast growth changes without added modifier – OD600, strain BY4716, 24 h, basal condition, primary screen (AID 1173); details: S. cerevisiae BY4716 growth, OD600, 24 h; higher = more signal, called active from +8 up or from −8 down
The label depends only on z-score: Condition met if it is at least -0.3, Condition not met if it is smaller.

# input Can CC1CC/C=C\[C@H]2OC34C=CCN(Cn5nnc6ccccc65)C(=O)[C@H]3N(CCCCCCO)C(=O)[C@@H]4C2C(=O)O1 (some centres not stated) be said to have z-score at or above -0.3?
# output Condition not met

# input Can COC(=O)C1(Cc2ccccc2)C=C2C(=C(C)C(=O)C2C)CN1 (configuration not stated) be said to have z-score at or above -0.3?
# output Condition met

# input Can "COc1ccc([Si](C)(C)[C@@H]2[C@@H](CC(=O)N(CCO)Cc3ccccc3)O[C@]3(C(=O)N(Cc4ccc(N5C(=O)c6cccc7cccc5c67)cc4)c4ccccc43)[C@H]2C)cc1" be said to have z-score at or above -0.3?
# output Condition met

# input Can "C[C@@H]1ON(c2ccc(I)cc2)[C@H](c2cccc(NC(=O)OCC3c4ccccc4-c4ccccc43)c2)[C@H]1C(=O)N1C(=O)OC[C@H]1Cc1ccccc1" be said to have z-score at or above -0.3?
# output Condition not met

# input Can [N-]=[N+]=Nc1ccccc1C[C@@]1(C(=O)NCC(O)CO)N=C(c2ccc(OCCCO)cc2)O[C@@H]1c1ccccc1 (some centres not stated) be said to have z-score at or above -0.3?
# output Condition not met

# input Can "C=C(CCCC)/C(=C/C[C@H](OC(=O)c1ccncc1)c1ccc(OCCO)cc1)c1cnc2ccccc2c1" be said to have z-score at or above -0.3?
# output Condition not met

These data points were gathered from PubChem BioAssay.
